target: MICA*004 on HCC1534 cells (human, UniProt Q29983 24-383); test: cell-based or functional assay; also: test concentration or dose not given here
endpoint_name: % Inhibition (%)
Unit % implied. Number only.

Consider the reported % Inhibition for these binders:
binder | % Inhibition (%)
13A9v1 (antibody, IgG1, V domains shown, humanized variant of 13A9) VH: EVQLVQSGAEVKKPGASVKVSCKASGYAFTNYLIEWVRQAPGQGLEWIGAINPGSGATNYNEKFKDRVTITADTSTSTAYLELSSLRSEDTAVYYCARFLGNYFDNWGQGTLVTVSS VL: DIQMTQSPSSLSASVGDRVTITCRASGNIHSYLAWYQQKPGKAPKLLIYYAETLADGVPSRFSGSGSGTDFTLTISSLQPEDFATYYCQQFWTTPYTFGQGTKVEIK | 12
1D5v22 (antibody, IgG1, V domains shown, humanized variant of 1D5) VH: EIQLVQSGAEVKKPGASVKVSCKASGYAFTSQNIYWVRQAPGQGLEWIGYIEPYNVVPMYNPKFKGRATLTRDKSTSTAYLELSSLRSEDTAVYYCARSGSSNFDYWGQGTLVTVSS VL: DIQLTQSPSSLSASVGDRVTITCSASSSISSHYLHWYQQKPGKSPKLLIYRTSNLASGVPSRFSGSGSGTDYTLTISSLQPEDFATYYCQQGSSLPLTFGQGTKVEIK | 46
1D5v12 (antibody, IgG1, V domains shown, humanized variant of 1D5) VH: EVQLVQSGAEVKKPGASVKVSCKASGYAFTSQNIYWVRQAPGQGLEWIGYIEPYNVVPMYNPKFKGRVTITRDTSTSTAYLELSSLRSEDTAVYYCARSGSSNFDYWGQGTLVTVSS VL: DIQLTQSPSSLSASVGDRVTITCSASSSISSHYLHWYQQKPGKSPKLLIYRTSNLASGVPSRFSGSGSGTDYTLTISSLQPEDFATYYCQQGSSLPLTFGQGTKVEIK | 50
1D5v20 (antibody, IgG1, V domains shown, humanized variant of 1D5) VH: EIQLVQSGAEVKKPGASVKVSCKASGYAFTSQNIYWVRQAPGQGLEWIGYIEPYNVVPMYNPKFKGRVTLTVDKSTSTAYLELSSLRSEDTAVYYCARSGSSNFDYWGQGTLVTVSS VL: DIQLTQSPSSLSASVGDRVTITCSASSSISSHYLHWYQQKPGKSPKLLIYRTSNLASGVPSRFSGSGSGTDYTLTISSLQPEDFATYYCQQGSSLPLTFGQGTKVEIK | 46

# ---- query binder ----
Req: Field request: % Inhibition | item: 1D5v16 (antibody, IgG1, V domains shown, humanized variant of 1D5) VH: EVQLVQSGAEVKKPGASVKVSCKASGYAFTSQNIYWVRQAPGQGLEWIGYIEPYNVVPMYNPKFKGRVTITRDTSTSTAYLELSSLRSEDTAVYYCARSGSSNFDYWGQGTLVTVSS VL: DIQMTQSPSSLSASVGDRVTITCSASSSISSHYLHWYQQKPGKAPKLLIYRTSNLASGVPSRFSGSGSGTDFTLTISSLQPEDFATYYCQQGSSLPLTFGQGTKVEIK
Resp: 50
